# system_tested: Angiopoietin-1 receptor (Homo sapiens)
# Sequence (Q02763 whole entry): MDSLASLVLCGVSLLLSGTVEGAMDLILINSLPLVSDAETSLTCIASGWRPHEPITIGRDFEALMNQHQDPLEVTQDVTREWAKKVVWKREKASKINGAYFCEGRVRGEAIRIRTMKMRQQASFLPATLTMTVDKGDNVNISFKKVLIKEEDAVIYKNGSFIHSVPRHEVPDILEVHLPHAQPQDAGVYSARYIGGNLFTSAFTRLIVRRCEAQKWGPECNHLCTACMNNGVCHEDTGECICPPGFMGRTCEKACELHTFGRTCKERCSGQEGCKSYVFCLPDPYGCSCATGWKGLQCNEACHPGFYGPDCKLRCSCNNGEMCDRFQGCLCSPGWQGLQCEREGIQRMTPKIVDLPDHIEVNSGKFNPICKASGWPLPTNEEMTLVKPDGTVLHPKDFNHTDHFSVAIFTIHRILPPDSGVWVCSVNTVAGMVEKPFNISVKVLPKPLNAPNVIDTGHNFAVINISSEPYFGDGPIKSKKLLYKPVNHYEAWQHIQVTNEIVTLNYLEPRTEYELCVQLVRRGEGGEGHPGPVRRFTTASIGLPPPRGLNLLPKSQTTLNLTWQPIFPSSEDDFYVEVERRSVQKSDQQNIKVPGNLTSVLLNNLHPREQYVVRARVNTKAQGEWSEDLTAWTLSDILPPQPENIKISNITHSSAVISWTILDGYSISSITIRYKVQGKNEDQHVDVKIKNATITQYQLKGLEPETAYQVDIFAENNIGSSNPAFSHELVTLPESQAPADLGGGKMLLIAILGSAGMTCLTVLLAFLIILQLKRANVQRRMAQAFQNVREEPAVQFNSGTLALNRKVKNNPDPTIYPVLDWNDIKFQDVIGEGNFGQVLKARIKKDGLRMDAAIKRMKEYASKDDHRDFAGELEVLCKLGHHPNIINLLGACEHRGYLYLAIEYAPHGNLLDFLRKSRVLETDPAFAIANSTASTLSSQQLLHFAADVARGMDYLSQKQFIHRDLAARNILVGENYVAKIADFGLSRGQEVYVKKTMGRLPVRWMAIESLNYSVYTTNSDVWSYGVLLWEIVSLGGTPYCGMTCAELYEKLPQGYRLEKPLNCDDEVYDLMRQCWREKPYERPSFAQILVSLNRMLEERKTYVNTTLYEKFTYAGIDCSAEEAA
measure: pIC50
Here pIC50 is given on a logarithmic scale as minus log10 of the concentration in mol/L.

Request: Need pIC50 of CNCCOc1ccc(-c2sc3nc(-c4cccs4)nc(NN4C(=O)C=C(C)C4=O)c3c2C)cc1.Cl , thanks.
Response: 5.01

====

Catalogue of remaining at 0.5 h, 1 µM values
# assay_text: Metabolic stability in human liver microsomes assessed as compound remaining at 1 uM after 30 mins in presence of NADPH by HPLC-MS analysis
# Format: ADME
# test_context: read-out: Stability
Write the numeric value and append its unit.

Solved entries (count: 9):
[[record]]
molecule = "CC1=CC(=O)N(Nc2nc(-c3cccs3)nc3sc(-c4ccc(OCc5ccc(F)cc5)cc4)c(C)c23)C1=O"
value_measured = "66.9%"

[[record]]
molecule = "CC1=CC(=O)N(Nc2nc(-c3cccs3)nc3sc(-c4ccc(OCC5CCCO5)cc4)c(C)c23)C1=O (stereo not given)"
value_measured = "41.7%"

[[record]]
molecule = "CC1=CC(=O)N(Nc2nc(-c3cccs3)nc3sc(CO)c(C)c23)C1=O"
value_measured = "24.6%"

[[record]]
molecule = "CC1=CC(=O)N(Nc2nc(-c3cccs3)nc3sc(C)cc23)C1=O"
value_measured = "58.8%"

[[record]]
molecule = "CC1=CC(=O)N(Nc2nc(-c3cccs3)nc3sc(-c4ccc(F)cc4)c(C)c23)C1=O"
value_measured = "39.5%"

[[record]]
molecule = "CC1=CC(=O)N(Nc2nc(-c3cccs3)nc3sc(-c4ccc(F)cc4)cc23)C1=O"
value_measured = "61%"

[[record]]
molecule = "CC1=CC(=O)N(Nc2nc(-c3cccs3)nc3sc(-c4ccc(OCCNCC(C)C)cc4)c(C)c23)C1=O"
value_measured = "66.2%"

[[record]]
molecule = "CNCCOc1ccc(-c2sc3nc(-c4cccs4)nc(NN4C(=O)C=C(C)C4=O)c3c2C)cc1.Cl"
value_measured = "79.8%"

[[record]]
molecule = "CC1=CC(=O)N(Nc2nc(-c3cccs3)nc3sc(C)c(C)c23)C1=O"
value_measured = "32.4%"


Below: the item to evaluate.
Request: Need remaining at 0.5 h, 1 µM of CC1=CC(=O)N(Nc2nc(-c3cccs3)nc3sc(-c4ccc(O)cc4)c(C)c23)C1=O , thanks.
Response: 71.8%
